# protocol.details: Anti HIV-1 activity, HIV-1 IIIB in PBMC
# Format: cell-based
# reported.conditions: HIV-1 IIIB/PBMC
measured.metric: CC50

CC50 recorded for this compound, CCc1c(C)[nH]c(=O)c(N(C)C)c1Cc1cc(C)cc(C)c1 , is > 1 µM

====

# Tested on: HIV-1 strain IIIB
# protocol.details: Retrovirucidal effect on HIV-1 strain IIIB (Table 3)
# Assay type: cell-based
# reported.conditions: pIC50=-log IC50, IC50 in M
measured.metric: HIV1 pIC50 strain IIIB
Give a plain numeric answer without units written out.

CCc1c(C)[nH]c(=O)c(N)c1C(=O)c1cc(C)cc(C)c1 | 6.612
CCc1c(C)[nH]c(=O)c(N)c1Cc1cccc2ccccc12 | 5.273

We now examine a further molecule.
HIV1 pIC50 strain IIIB recorded for this molecule, CCc1c(C)[nH]c(=O)c(N(C)C)c1C(=O)c1cccc(Br)c1 , is 8.921

====

# Tested on: HIV-1 strain IIIB
# protocol.details: Retrovirucidal effect on HIV-1 strain IIIB (Table 3)
# Type: cell-based
# reported.conditions: pIC50=-log IC50, IC50 in M
# Protocol: HIV-1 viral suspensions were obtained by coculture of MT4 cells and H9 cells chronically infected by HIV-ILai isolate. 200 μl of a cell supernatant containing viral particles (HIV-ILai: 100 TCID50) were incubated at room temperature with various concentrations of different inhibitors. […] Then, the viral concentrate was readjusted to the initial volume with RPMI plus 10% foetal calf serum (FCS). […] After 3 hours at 37° C., the level of the reaction was measured in a fluorescence microplate reader. […]
Form field: HIV1 pIC50 strain IIIB (one value per entry).
Give a plain numeric answer without units written out.

Use the examples below as a reference point.
Cc1cccc(C(=O)c2c(C)c(C)[nH]c(=O)c2N)c1 [Compound 94] | 5.153
CCc1c(C)[nH]c(=O)c(N)c1C(=O)c1cc(Cl)cc(Cl)c1 [Compound 190] | 7.757
CCc1c(C)[nH]c(=O)c(N(C)C)c1C(O)c1cc(C)cc(C)c1 (stereo not drawn) [Compound 48] | 8
CCCc1c(C)[nH]c(=O)c(N(C)C)c1Cc1cc(C)cc(C)c1 [Compound 71] | 7.777

HIV1 pIC50 strain IIIB recorded for this molecule, CCc1c(C)[nH]c(=O)c(N(C)C)c1Cc1ccc(Cl)cc1 [Compound 55] , is 6.651

HIV1 pIC50 strain IIIB recorded for this molecule, CCCN(CCC)c1c(Cc2cc(C)cc(C)c2)c(CC)c(C)[nH]c1=O [Compound 17] , is 6.285

HIV1 pIC50 strain IIIB recorded for this molecule, CCc1c(C)[nH]c(=S)c(N(C)C)c1Cc1cc(C)cc(C)c1 [Compound 137] , is 7.658

HIV1 pIC50 strain IIIB recorded for this molecule, CCc1c(C)[nH]c(=O)c(N)c1Cc1ccc2c(c1)OCO2 [Compound 141] , is 4.642

HIV1 pIC50 strain IIIB recorded for this molecule, CCc1c(C)[nH]c(=O)c(N(C)CCC(C)C)c1Cc1cccc(C)c1 [Compound 155] , is 7.514

HIV1 pIC50 strain IIIB recorded for this molecule, CCc1c(Cc2cc(C)cc(C)c2)c(N(C)C)c(=O)n(N)c1C [Compound 153] , is 6.749

HIV1 pIC50 strain IIIB recorded for this molecule, CCCCc1cc(Cc2cc(C)cc(C)c2)c(N)c(=O)[nH]1 [Compound 89] , is 6.237

HIV1 pIC50 strain IIIB recorded for this molecule, CCc1c(C)[nH]c(=O)c(N(C)CCOC)c1Cc1cc(C)cc(C)c1 [Compound 78] , is 8.678

====

# Tested on: HIV-LAI wild type
# protocol.details: Antiviral activity on HIV-LAI wild type
# Format: cell-based, HIV-1
# reported.conditions: Human immunodeficiency virus 1; HIV-LAI wild type
measured.metric: IC50 (nM)
Please give a number only; it is taken to be in nM.

IC50 recorded for this compound, CCc1c(C)[nH]c(=O)c(N(C)C)c1Cc1cc(C)cc(C)c1 , is 0.2

====

# System: HIV-1 strain IIIB
# protocol.details: Retrovirucidal effect on HIV-1 strain IIIB (Table 3)
# Assay type: cell-based
# reported.conditions: retrovirucidal effect, pIC50=-log IC50 (M)
Classification field: enter true for HIV1 pIC50 strain IIIB values not below 7, false for values below it.

The following molecules have reported results that may help.
CCc1c(C)[nH]c(=O)c(N)c1Oc1cc(C)cc(C)c1 | true
CCc1c(C)[nH]c(=O)c(N(C)C)c1Cc1ccccc1Br | true

Decide: HIV1 pIC50 strain IIIB of Cc1c[nH]c(=O)c(N)c1SCc1ccccc1 >= 7?
false

Decide: HIV1 pIC50 strain IIIB of CCc1c(C)[nH]c(=O)c(N)c1Cc1ccccc1Br >= 7?
false

Decide: HIV1 pIC50 strain IIIB of CCc1c(C)[nH]c(=O)c(N(C)C)c1Oc1cc(C)cc(C)c1 >= 7?
true

====

# protocol.details: Anti HIV-1 activity, HIV-1 IIIB in MT4 cells
# Format: cell-based
# reported.conditions: human; HIV-1 IIIIB/MT4
measured.metric: CC50

CC50 recorded for this molecule, CCc1c(C)[nH]c(=O)c(N(C)C)c1Cc1cc(C)cc(C)c1 , is > 1000 nM

====

# Test system: HIV-1 strain IIIB
# protocol.details: Retrovirucidal effect on HIV-1 strain IIIB (Table 3)
# Format: cell-based
# reported.conditions: pIC50=-log IC50, IC50 in M
Form field: HIV1 pIC50 strain IIIB (one value per entry).

CCc1c(C)[nH]c(=O)c(N)c1C(=O)c1cccc(C(F)(F)F)c1 | 5.766
CCc1c(C)[nH]c(=O)c(N(C)C)c1C(=O)c1ccc(C)o1 | 8.041
Cc1cc(C)cc(Cc2c(C)c(C(C)C)[nH]c(=O)c2N(C)C)c1 | 6.114
CCc1c(C)[nH]c(=O)c(N(C)C)c1Cc1cc(C)ccc1C | 6.796
CCc1c(C)[nH]c(=O)c(N(C)C)c1C(=O)c1ccc2c(c1)OCCO2 | 6.394
Cc1cc(C)cc(Cc2cc(CCC(C)C)[nH]c(=O)c2N(C)C)c1 | 5.827

HIV1 pIC50 strain IIIB recorded for this compound, CCc1c(C)[nH]c(=O)c(N)c1C(OC)c1cc(C)cc(C)c1 (stereo not shown) , is 8.027

HIV1 pIC50 strain IIIB recorded for this compound, CCc1c(C)[nH]c(=O)c(N)c1C(=O)c1ccc2c(c1)OCO2 , is 4.881

HIV1 pIC50 strain IIIB recorded for this compound, CCc1c(C)[nH]c(=O)c(N(C)C)c1C(=O)c1ccc2c(c1)OCO2 , is 7.845

HIV1 pIC50 strain IIIB recorded for this compound, CCc1c(C)[nH]c(=O)c(N(C)C)c1Cc1ccc(C)c(C)c1 , is 7.447

HIV1 pIC50 strain IIIB recorded for this compound, Cc1cc(C)cc(Cc2c(Cl)c[nH]c(=O)c2N(C)C)c1 , is 7.063

====

# protocol.details: Anti HIV-1 activity, HIV-1 Bal in monocytes/macrophages
# Type: cell-based
# reported.conditions: HIV-1 Bal/Mono/macrophages
measured.metric: CC50

CC50 recorded for this compound, CCc1c(C)[nH]c(=O)c(N(C)C)c1Cc1cc(C)cc(C)c1 [Example 1] , is > 1000 nM

====

# Tested on: HIV-1 strain 103 N
# protocol.details: Retrovirucidal effect on HIV-1 strain 103 N (Table 3)
# Format: cell-based
# reported.conditions: HIV-1 strain 103N (RT Lys-103 to Asn mutant); pIC50=-log IC50, IC50 in M
Form field: HIV1 pIC50 strain 103N (one value per entry).
Give a plain numeric answer without units written out.

CCc1c(C)[nH]c(=O)c(N)c1C(=O)c1cc(C)cc(C)c1 | 6.64
CCc1c(C)[nH]c(=O)c(N2CCCCC2)c1Cc1cc(C)cc(C)c1 | 4.224
CCc1c(C)[nH]c(=O)c(N(C)C)c1CNc1ncccn1 | 4.74
CCc1c(C)[nH]c(=O)c(N(C)C)c1C(=O)c1cccs1 | 6.461
CCc1c(C)[nH]c(=O)c(N)c1Sc1cc(C)cc(C)c1 | 6.671
Cc1cc(C)cc(Cc2cc(C)[nH]c(=O)c2N(C)C)c1 | 4.25
CCc1c(C)[nH]c(=O)c(N(C)C)c1Cc1cccc(C)c1 | 7.622
Cc1cc(C)cc(Cc2cc[nH]c(=O)c2N)c1 | 4.138
CCc1c(C)[nH]c(=O)c(N(C)C)c1Cc1cn(C)c2ccccc12 | 6.422
CCCc1cccc(Cc2c(CC)c(C)[nH]c(=O)c2N(C)C)c1 | 7.058

HIV1 pIC50 strain 103N recorded for this compound, CCc1c(C)[nH]c(=O)c(N(C)C)c1Cc1cccnc1 , is 6.355

HIV1 pIC50 strain 103N recorded for this compound, CCc1c(C)[nH]c(=O)c(N(C)C)c1Cc1ccccc1 , is 6.65
